Just for reference, PubChem BioAssay (NCI) is where these values come from.

tested on: DU-145 prostate; test: NCI-60 one-dose screen, 48 h; settings: 10 µM unless noted
Compounds without any hit were thinned out: in the full panel of roughly 83,000, 20% have a hit. Activity calls are given as the source filed them. How the source made its calls: active means growth percent below 10; inactive means the rest.
Form entry, call: pick from true (1) = active, false (0) = inactive

For orientation, consider the following solved cases.
O=c1[nH]c(CNc2ccc(NCc3c(-c4ccccc4)no[n+]3[O-])cc2)nc2c1cnn2-c1ccccc1 :: false (0)
O=C(Cn1cc(CN2C(=O)c3ccc([N+](=O)[O-])cc3C2=O)nn1)Nc1ccccc1Br :: false (0)
CNC(=O)c1c(NC(=O)c2ccc(F)cc2F)sc2c1CCC(=O)C2 :: false (0)
COC(=O)c1c(C(=O)OC)c2n(CC(=O)Nc3cccc4cccnc34)c3ccccc3n2c1C(=O)c1ccc(C)cc1 :: false (0)

What call does the record list for CCOC(=O)CC(=O)CSC1=NC2C(NN1)N(C)C(=O)N2C (centres undefined) ?
false (0)

What call does the record list for Oc1ccc(CSc2nnc(-c3cnccn3)n2-c2ccccc2)c2cccnc12 ?
false (0)

What call does the record list for COc1ccc(-c2nc(SCCC(C)C)nc(N/N=C\c3ccc(O)cc3)c2C#N)cc1 ?
false (0)

What call does the record list for CCOC(=O)c1c(NCC(=O)Nc2cccc([N+](=O)[O-])c2)sc2c1CCCC2 ?
true (1)

What call does the record list for CNC(=O)c1cc(Oc2ccc3nc(NC(=O)c4ccc(CN5CCCN(C)CC5)c(C(F)(F)F)c4)sc3c2)ccn1 ?
false (0)

What call does the record list for C/C(=C(/C)C1CC1CCN(C(=O)c1ccccn1)S(=O)(=O)c1ccc(C)cc1)C1CCCCC1 (centres undefined) ?
false (0)

What call does the record list for CCOC(=O)c1c(NCC(=O)Nc2cccc(Cl)c2)sc2c1CCCC2 ?
false (0)

What call does the record list for Cc1ccc(/C=C/c2nn3c(-c4ccco4)nnc3s2)cc1 ?
false (0)

What call does the record list for COc1ccc(-c2no[n+]([O-])c2Nc2ccccc2Br)cc1 ?
false (0)

What call does the record list for COc1cc(C2CC(c3ccc(Nc4nc(NCCO)nc(Nc5ccc(Cl)cc5)n4)cc3)=Nc3c(N)nc(N)nc3N2)cc(OC)c1OC (centres undefined) ?
false (0)

What call does the record list for CCNCc1c(-c2cccc(OC(F)(F)F)c2)[nH]c2ccc(N3CCCC3)cc2c1=O ?
false (0)

What call does the record list for C=C1C(=O)O[C@@H]2C[C@@H](C)/C=C\C(=O)[C@](C)(OC(C)=O)C[C@H](OC(=O)/C(C)=C\C)[C@@H]12 ?
true (1)

What call does the record list for COc1ccc(C2C(C#N)=C(N)Oc3c2sc2ccc(C)cc32)cc1 (centres undefined) ?
false (0)

What call does the record list for COc1ccc(CCN2C(=O)/C(=C/c3nc(CO)cs3)SC2=S)cc1 ?
false (0)

What call does the record list for CS(=O)(=O)c1ccc(-c2nn(-c3ccccc3)cc2/C=N/NC(=O)c2ccncc2)cc1 ?
false (0)
